Ref: ChEMBL document CHEMBL1122024

experiment: physchem
Description: Dissociation constant (pKa)
assay_readout: pKa
Write the number on its own, no unit after it.

Known pKa results, listed for orientation:
>>> df
                                   compound  recorded_number
0  Oc1c(Cl)cc(Cl)c(Cl)c1Cc1c(O)c(Cl)cc(Cl)c1Cl [HEXACHLOROPHENE]                5
1              Cc1ccc(C(C)C)c(O)c1 [THYMOL]             10.7
2                         CC(C)(C)c1ccccc1O             11.3
3                            CC(C)c1ccccc1O             10.4
4    O=[N+]([O-])c1ccccc1O [NITROPHENOLATE]              7.2
5   O=[N+]([O-])c1ccc(O)cc1 [P-NITROPHENOL]              7.1
6                 Cc1cccc(O)c1 [METACRESOL]             10.1
7         CCCCCCCCCCCCC(=O)O [TRIDECANOATE]              4.9
8                 Oc1cccc(O)c1 [RESORCINOL]              9.4
9                        Cc1cc(C)c(O)c(C)c1             10.9

// Oc1c(Cl)cc(Cl)c(Cl)c1Cl : pKa value = 5.7

compound Oc1c(Cl)c(Cl)c(Cl)c(Cl)c1Cl [PENTACHLOROPHENOL] , pKa observed: 5
